Numbers sourced from ChEMBL document CHEMBL4296182.

Test system: Staphylococcus aureus
assay_comment: Antibacterial activity against Staphylococcus aureus MRSA ATCC 43300 (CO-ADD:GP_020); MIC in CAMBH media using NBS plates, by Resazurin F(560/590)
Assay type: functional
test_conditions: Concentration 20 uM, ASSAY_TEST Inhibition of Bacterial Growth, detection method Resazurin, Fluorescence (ex560/em590), MEDIA CAMHB, plate type 384well, CORNING #3640, time 18 hr
reported_metric: Inhibition (%)
Answer in %, number only, no unit symbol.

# example entries with known answers
{"compound": "c1ccc(Sc2ncccn2)nc1", "Inhibition [%]": 20.57}
{"compound": "CN1C(=O)c2ccccc2Cc2c(NCc3ccccc3)ncnc21", "Inhibition [%]": 11.35}
{"compound": "OC(COc1ccc(Cl)cc1)CN1CCN(c2cccc(Cl)c2)CC1 (configuration not stated)", "Inhibition [%]": 15.95}

The reported value for c1cc2c3c(cccc3c1)NC1(CCC3(CC1)Nc1cccc4cccc(c14)N3)N2 in terms of Inhibition is 1.15

// recorded Inhibition for O=c1nc(Nc2cccc(Cl)c2)oc2cc(Cl)oc(=O)c12 : 6.93

What the record says about O=C1OC(Cc2ccccc2)C(c2ccccc2)C1=O (configuration not stated) : Inhibition is 9.75

// field: Inhibition; key: COc1ccc(/C=C2/CCOC2=O)cc1 ; value = -2.28
